measured quantity: IC50
Please answer using a numeric value trailed by its unit.

Give the reported IC50 for OC[C@@H]1[C@@H](O[C@H]2O[C@H](CO)[C@@H](O)[C@H](O)[C@H]2O)[C@H](O)[C@@H](O)CN1CCOc1ccccc1 [Example 9] (system: sucrase (Oryctolagus cuniculus, UniProt P07768)).
Sequence (P07768 1008-1827 limits assumed): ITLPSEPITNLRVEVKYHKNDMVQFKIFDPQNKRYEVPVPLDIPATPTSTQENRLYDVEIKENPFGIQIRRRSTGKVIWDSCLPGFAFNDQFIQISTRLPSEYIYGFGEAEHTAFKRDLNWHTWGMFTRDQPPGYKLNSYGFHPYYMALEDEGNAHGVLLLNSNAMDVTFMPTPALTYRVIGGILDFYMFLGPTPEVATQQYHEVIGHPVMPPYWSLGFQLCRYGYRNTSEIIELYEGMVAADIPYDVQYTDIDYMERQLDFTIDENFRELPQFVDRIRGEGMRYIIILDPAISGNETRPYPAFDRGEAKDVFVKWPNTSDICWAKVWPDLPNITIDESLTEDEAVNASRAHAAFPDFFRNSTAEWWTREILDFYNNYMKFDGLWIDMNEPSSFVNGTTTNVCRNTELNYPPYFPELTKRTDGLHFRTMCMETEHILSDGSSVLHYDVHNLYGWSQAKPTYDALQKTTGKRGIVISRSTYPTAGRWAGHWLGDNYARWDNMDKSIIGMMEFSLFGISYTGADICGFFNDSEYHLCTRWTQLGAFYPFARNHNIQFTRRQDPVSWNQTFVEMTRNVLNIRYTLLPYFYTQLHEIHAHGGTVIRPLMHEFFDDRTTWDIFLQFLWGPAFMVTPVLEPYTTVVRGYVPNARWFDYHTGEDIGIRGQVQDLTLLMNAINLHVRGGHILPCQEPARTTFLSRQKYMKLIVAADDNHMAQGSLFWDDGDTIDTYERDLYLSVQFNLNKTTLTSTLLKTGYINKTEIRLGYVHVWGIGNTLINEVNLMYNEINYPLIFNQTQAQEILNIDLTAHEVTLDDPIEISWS
Sequence (P07768 2-1007 partner limits assumed): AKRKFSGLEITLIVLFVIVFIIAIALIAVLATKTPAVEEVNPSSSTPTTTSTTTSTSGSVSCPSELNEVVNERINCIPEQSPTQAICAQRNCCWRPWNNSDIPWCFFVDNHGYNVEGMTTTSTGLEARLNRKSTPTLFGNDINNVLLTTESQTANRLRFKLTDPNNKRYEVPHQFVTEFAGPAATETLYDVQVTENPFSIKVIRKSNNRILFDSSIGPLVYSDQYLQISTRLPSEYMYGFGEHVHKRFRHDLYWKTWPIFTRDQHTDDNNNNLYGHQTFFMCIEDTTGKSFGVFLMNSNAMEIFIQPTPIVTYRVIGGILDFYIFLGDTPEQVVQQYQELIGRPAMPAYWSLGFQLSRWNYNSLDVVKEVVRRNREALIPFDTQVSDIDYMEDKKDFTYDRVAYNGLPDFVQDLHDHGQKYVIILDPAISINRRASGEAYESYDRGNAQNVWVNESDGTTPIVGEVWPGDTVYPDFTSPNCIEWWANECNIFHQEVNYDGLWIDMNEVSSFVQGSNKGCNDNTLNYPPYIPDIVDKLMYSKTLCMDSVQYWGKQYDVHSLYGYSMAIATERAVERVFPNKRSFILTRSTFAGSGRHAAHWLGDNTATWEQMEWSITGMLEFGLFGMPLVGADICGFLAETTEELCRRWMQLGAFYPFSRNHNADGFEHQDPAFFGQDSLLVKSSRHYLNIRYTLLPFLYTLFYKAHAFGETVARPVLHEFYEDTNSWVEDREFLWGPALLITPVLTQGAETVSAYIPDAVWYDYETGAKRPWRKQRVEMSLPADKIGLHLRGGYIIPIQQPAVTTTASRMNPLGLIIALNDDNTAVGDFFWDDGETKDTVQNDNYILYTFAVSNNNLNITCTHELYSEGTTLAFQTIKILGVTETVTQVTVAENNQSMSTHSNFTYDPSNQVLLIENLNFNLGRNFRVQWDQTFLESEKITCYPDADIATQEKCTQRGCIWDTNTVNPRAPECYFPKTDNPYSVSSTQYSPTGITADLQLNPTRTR
14.4 µM

Give the reported IC50 for COC(=O)CCCCN1C[C@H](O)[C@@H](O)[C@H](O[C@H]2O[C@H](CO)[C@@H](O)[C@H](O)[C@H]2O)[C@H]1CO [Example 18] (system: sucrase (Oryctolagus cuniculus, UniProt P07768)).
45.1 µM

Give the reported IC50 for CCCCCCCCCN1C[C@H](O)[C@@H](O)[C@H](O[C@H]2O[C@H](CO)[C@@H](O)[C@H](O)[C@H]2O)[C@H]1CO [Example 17, hydrate] (system: sucrase (Oryctolagus cuniculus, UniProt P07768)).
11.5 µM

Give the reported IC50 for OC[C@@H]1[C@@H](O[C@H]2O[C@H](CO)[C@@H](O)[C@H](O)[C@H]2O)[C@H](O)[C@@H](O)CN1CC(O)COc1ccccc1 (stereo partly drawn) [Example 22, p-toluenesulfonate hydrate] (system: sucrase (Oryctolagus cuniculus, UniProt P07768)).
33.9 µM

Give the reported IC50 for COc1ccc(CN2C[C@H](O)[C@@H](O)[C@H](O[C@H]3O[C@H](CO)[C@@H](O)[C@H](O)[C@H]3O)[C@H]2CO)cc1 [Example 8] (system: sucrase (Oryctolagus cuniculus, UniProt P07768)).
55.7 µM

Give the reported IC50 for Cc1ccc(CN2C[C@H](O)[C@@H](O)[C@H](O[C@H]3O[C@H](CO)[C@@H](O)[C@H](O)[C@H]3O)[C@H]2CO)cc1 [Example 1] (system: sucrase (Oryctolagus cuniculus, UniProt P07768)).
36.1 µM
